These measurements were taken from patent US11319316B2.

System: NCI-H146 cancer cells
measurement.description: Cancer cell viability by MTS, 72 h, NCI-H146
Assay type: cell-based
run.parameters: Homo sapiens
pEC50: −log10 of the molar value.
experimental.readout: pEC50

compound: CC1(C)CCC(CN2CCN(c3ccc(C(=O)NS(=O)(=O)c4ccc(NCC5CCN(C(=O)CCCn6cc(COCCOCCOCCNc7cccc8c7C(=O)N(C7CCC(=O)NC7=O)C8=O)nn6)CC5)c([N+](=O)[O-])c4)c(Oc4cnc5[nH]ccc5c4)c3)CC2)=C(c2ccc(Cl)cc2)C1 (stereo not drawn)
experimental.readout: pEC50
limit.sign: =
data.value: 5.90

compound: CC1(C)CCC(c2ccc(Cl)cc2)=C(CN2CCN(c3ccc(C(=O)NS(=O)(=O)c4ccc(N[C@H](CCN5CCN(CCOCCNc6cccc7c6C(=O)N(C6CCC(=O)NC6=O)C7=O)CC5)CSc5ccccc5)c(S(=O)(=O)C(F)(F)F)c4)cc3)CC2)C1 (stereo partly drawn)
experimental.readout: pEC50
limit.sign: <
data.value: 8.00

compound: CC1(C)CCC(c2ccc(Cl)cc2)=C(CN2CCN(c3ccc(C(=O)NS(=O)(=O)c4ccc(N[C@H](CCN5CCN(C(=O)COCCOCCOCCOCCNc6cccc7c6C(=O)N(C6CCC(=O)NC6=O)C7=O)CC5)CSc5ccccc5)c(S(=O)(=O)C(F)(F)F)c4)cc3)CC2)C1 (stereo partly drawn)
experimental.readout: pEC50
limit.sign: =
data.value: 7.12

compound: Cc1ncsc1-c1ccc(CNC(=O)[C@@H]2C[C@@H](O)CN2C(=O)[C@@H](NC(=O)CCC(=O)NCCOCCOCCNC(=O)N2CCC(CNc3ccc(S(=O)(=O)NC(=O)c4ccc(N5CCN(CC6=C(c7ccc(Cl)cc7)CC(C)(C)CC6)CC5)cc4Oc4cnc5[nH]ccc5c4)cc3[N+](=O)[O-])CC2)C(C)(C)C)cc1
experimental.readout: pEC50
limit.sign: <
data.value: 5.70

compound: CC1(C)CCC(c2ccc(Cl)cc2)=C(CN2CCN(c3ccc(C(=O)NS(=O)(=O)c4ccc(N[C@H](CCN5CCN(C(=O)NCCOCCOCCNc6cccc7c6C(=O)N(C6CCC(=O)NC6=O)C7=O)CC5)CSc5ccccc5)c(S(=O)(=O)C(F)(F)F)c4)cc3)CC2)C1 (stereo partly drawn)
experimental.readout: pEC50
limit.sign: =
data.value: 7.19

compound: O=C1CCC(N2C(=O)c3cccc(NCCOCCOCCOCc4cn(CCCC(=O)N5CCN(CC#Cc6ccc(OCCCc7sc(N8CCc9cccc(C(=O)Nc%10nc%11ccccc%11s%10)c9C8)nc7C(=O)O)c(F)c6)CC5)nn4)c3C2=O)C(=O)N1 (stereo not drawn)
experimental.readout: pEC50
limit.sign: <
data.value: 5.70
